TESTED SYSTEM: recombinant human OX40 fused to a His-tag (Acro Biosystems, cat. no. OX0-H5224) (human) (UniProt P43489)
Sequence (P43489 29-214 limits assumed): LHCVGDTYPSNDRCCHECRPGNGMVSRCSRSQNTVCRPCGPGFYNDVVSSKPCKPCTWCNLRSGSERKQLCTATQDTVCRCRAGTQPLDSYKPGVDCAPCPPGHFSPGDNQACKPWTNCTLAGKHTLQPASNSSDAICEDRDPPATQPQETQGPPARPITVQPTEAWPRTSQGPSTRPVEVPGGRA
PROTOCOL: BLI cross-block; first Ab (competitor): IgG1-CD134-GBR830
PROPERTY NAME: association response (nm)
Answers are plain numbers, in nm.

stdin: Look at this binder and give its reported association response. IgG1-CD134-MEDI0562 (antibody, INN chains, looked up, V domains shown, IgG1) VH: QVQLQESGPGLVKPSQTLSLTCAVYGGSFSSGYWNWIRKHPGKGLEYIGYISYNGITYHNPSLKSRITINRDTSKNQYSLQLNSVTPEDTAVYYCARYKYDYDGGHAMDYWGQGTLVTVSS VL: DIQMTQSPSSLSASVGDRVTITCRASQDISNYLNWYQQKPGKAPKLLIYYTSKLHSGVPSRFSGSGSGTDYTLTISSLQPEDFATYYCQQGSALPWTFGQGTKVEIK
stdout: 0.32
